Where do the numbers come from? From PubChem BioAssay AID1963854.

Below, each entry is listed with its recorded viability, T/C.
test system: 186277-243-T-J2-PDC complex spheroid viability; assay: Anticancer human tumor 186277-243-T-J2-PDC patient-derived colon adenocarcinoma cell line growth inhibition [POLQ]; conditions: second compound 1 µM; first compound 0.0316 µM; stronger effect = lower value

Query (molecule): C#Cc1c(F)ccc2cc(O)cc(-c3ncc4c(N5CC6CCC(C5)N6)nc(OCC56CCCN5CC(F)C6)nc4c3F)c12 (stereo not drawn) + Cc1cccc(N(C)C(=O)C2C(O)CCN2c2nc(C)cc(C(F)(F)F)c2C#N)c1 ; field requested: viability, T/C
89.8%

Query (molecule): CC[C@@]1(O)C(=O)OCc2c1cc1n(c2=O)Cc2cc3c(CN(C)C)c(O)ccc3nc2-1 + Nc1ccc(C#CCN(C(=O)Cc2ncc(C(F)(F)F)cc2C(F)(F)F)c2ccc(F)cc2)nn1 ; field requested: viability, T/C
130%

New cases:
Query (molecule): CC1COCCN1c1cc(C2(S(C)(=N)=O)CC2)nc(-c2ccnc3[nH]ccc23)n1 (stereo not drawn) + COC1C(OC(N)=O)C(O)C(Oc2ccc3c(O)c(NC(=O)c4ccc(O)c(CC=C(C)C)c4)c(=O)oc3c2C)OC1(C)C ; field requested: viability, T/C
95.8%

###

tested on: 186277-243-T-J2-PDC complex spheroid viability; assay: Anticancer human tumor 186277-243-T-J2-PDC cell line growth inhibition [POLQ]; conditions: second compound 0.1 µM; first compound 1 µM; active = viability on the fitted dose curve at most 10% of control; inactive = the rest;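 note: spheroids exposed to compounds for seven days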
API: response.call in active, inactive

Please review the entries below; each comes with its answer.
Which result was noted for this compound in the test: CCc1c2c(nc3ccc(O)cc13)-c1cc3c(c(=O)n1C2)COC(=O)[C@]3(O)CC + COC1C(OC(N)=O)C(O)C(Oc2ccc3c(O)c(NC(=O)c4ccc(O)c(CC=C(C)C)c4)c(=O)oc3c2C)OC1(C)C
active

Which result was noted for this compound in the test: Nc1ccn(C2OC(CO)C(O)C2(F)F)c(=O)n1 (stereo not drawn) + Nc1ccc(C#CCN(C(=O)Cc2ncc(C(F)(F)F)cc2C(F)(F)F)c2ccc(F)cc2)nn1
inactive

Moving on to another compound below.
Which result was noted for this compound in the test: CNCc1ccc(-c2[nH]c3cc(F)cc4c3c2CCNC4=O)cc1 + Nc1ccc(C#CCN(C(=O)Cc2ncc(C(F)(F)F)cc2C(F)(F)F)c2ccc(F)cc2)nn1
inactive

###

Below, each entry is listed with its recorded pIC50.
test system: 186277-243-T-J2-PDC complex spheroid viability; assay: Anticancer human tumor 186277-243-T-J2-PDC cell line growth inhibition [POLQ]; conditions: curve of first compound; second compound 0.0316 µM;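 note: spheroids exposed to compounds for seven days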
pIC50: −log10 of the molar value.

Query (compound): O=C(Nc1ccc(O)c(NS(=O)(=O)c2ccc(F)cc2)c1)c1ccc(-c2ccccc2)cc1 + COC1C(OC(N)=O)C(O)C(Oc2ccc3c(O)c(NC(=O)c4ccc(O)c(CC=C(C)C)c4)c(=O)oc3c2C)OC1(C)C ; field requested: pIC50
< 5.00

Query (compound): Nc1ccn(C2OC(CO)C(O)C2(F)F)c(=O)n1 (configuration not stated) + Cc1cccc(N(C)C(=O)C2C(O)CCN2c2nc(C)cc(C(F)(F)F)c2C#N)c1 ; field requested: pIC50
> 7.50

Query (compound): C=CCn1c(=O)c2cnc(Nc3ccc(N4CCN(C)CC4)cc3)nc2n1-c1cccc(C(C)(C)O)n1 + COC1C(OC(N)=O)C(O)C(Oc2ccc3c(O)c(NC(=O)c4ccc(O)c(CC=C(C)C)c4)c(=O)oc3c2C)OC1(C)C ; field requested: pIC50
6.72

New cases:
Query (compound): CC1COCCN1c1cc(C2(O)CC3CCC(C2)O3)c2cnn(-c3ccn[nH]3)c2n1 (configuration not stated) + Nc1ccc(C#CCN(C(=O)Cc2ncc(C(F)(F)F)cc2C(F)(F)F)c2ccc(F)cc2)nn1 ; field requested: pIC50
7.17

Query (compound): CCc1c2c(nc3ccc(O)cc13)-c1cc3c(c(=O)n1C2)COC(=O)[C@]3(O)CC + Cc1cccc(N(C)C(=O)C2C(O)CCN2c2nc(C)cc(C(F)(F)F)c2C#N)c1 ; field requested: pIC50
8.03

Query (compound): O=C(c1cc(Cc2n[nH]c(=O)c3ccccc23)ccc1F)N1CCN(C(=O)C2CC2)CC1 + Cc1cccc(N(C)C(=O)C2C(O)CCN2c2nc(C)cc(C(F)(F)F)c2C#N)c1 ; field requested: pIC50
< 5.00

Query (compound): COc1cc2cc(C(=O)CCC(=O)O)sc2cc1OC + Nc1ccc(C#CCN(C(=O)Cc2ncc(C(F)(F)F)cc2C(F)(F)F)c2ccc(F)cc2)nn1 ; field requested: pIC50
< 5.00

Query (compound): CCc1c2c(nc3ccc(O)cc13)-c1cc3c(c(=O)n1C2)COC(=O)[C@]3(O)CC + COC1C(OC(N)=O)C(O)C(Oc2ccc3c(O)c(NC(=O)c4ccc(O)c(CC=C(C)C)c4)c(=O)oc3c2C)OC1(C)C ; field requested: pIC50
8.18
